Target: T1, His-tagged HM1.24 antigen, residues N49-A163 of the extracellular domain (UniProt Q10589 49-163)
T1 chain: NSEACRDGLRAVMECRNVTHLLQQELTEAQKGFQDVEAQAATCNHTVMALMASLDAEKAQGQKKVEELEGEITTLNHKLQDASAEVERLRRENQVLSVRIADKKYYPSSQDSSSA
Experiment: Biacore
measured_quantity: koff (s⁻¹)
Report only the number, with the unit s⁻¹ understood.

Solved entries:
[[record]]
binder = "HM1.24_H1.1 heavy chain variant with HM1.24_L4 light chain (antibody, V domains shown) VH: QVQLVQSGAEVKKPGASVKVSCKASGYTFTPYWMQWVRQAPGQGLEWMGSIFPGEGDTRYSQSFQGQVTISADKSISTAYMELSRLRSDDTAVYYCARGLRRGGYYFDYWGQGTLVTVSS VL: DIVMTQSPLSLPVTLGQPASISCKASQDVNTAVAWYLQKPGKSPKLLIYSASNRYTGVPDRITGSGSGTDFTLKISRVEAEDVGVYYCQQHYSTPFTFGSGTKLEIKR"
measured_quantity = "koff"
measured_number = 0.00201

[[record]]
binder = "HM1.24_H2.3 heavy chain variant with HM1.24_L4 light chain (antibody, V domains shown) VH: EVQLVESGGGLVKPGGSLRLSCAASGYTFTPYWMQWVRQAPGKGLEWMGSIFPGDSDTRYSQSFQGQVTISADKSISTAYMELSSLRSEDTAVYYCARGLRRGGYYFDYWGQGTLVTVSS VL: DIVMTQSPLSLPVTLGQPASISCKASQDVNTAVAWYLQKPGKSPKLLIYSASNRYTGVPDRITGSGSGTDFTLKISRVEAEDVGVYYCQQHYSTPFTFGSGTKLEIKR"
measured_quantity = "koff"
measured_number = 0.00327

[[record]]
binder = "HM1.24_H1.3_L2_Hybrid_S239D/I332E (antibody, V domains shown) VH: QVQLVQSGAEVKKPGASVKVSCKASGYTFTPYWMQWVRQAPGQGLEWMGSIFPGDSDTRYSQSFQGQVTISADKSISTAYMELSRLRSDDTAVYYCARGLRRGGYYFDYWGQGTLVTVSS VL: DIVMTQSPSSLSASVGDRVTITCQASQDVNTAVAWYQQKPDQSPKLLIYSASNRYTGVPDRITGSGSGTDFTLTISSLQAEDVAVYYCQQHYSTPFTFGSGTKLEIKR"
measured_quantity = "koff"
measured_number = 0.00279


Need koff of HM1.24_H1L4 (antibody, V domains shown) VH: QVQLVQSGAEVKKPGASVKVSCKASGYTFTPYWMQWVRQAPGQGLEWMGSIFPGDGDTRYSQSFQGQVTISADKSISTAYMELSRLRSDDTAVYYCARGLRRGGYYFDYWGQGTLVTVSS VL: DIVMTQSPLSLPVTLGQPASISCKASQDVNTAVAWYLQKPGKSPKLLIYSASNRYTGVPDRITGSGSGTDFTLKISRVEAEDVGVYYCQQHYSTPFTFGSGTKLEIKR , thanks.
0.00243

Need koff of HM1.24_H2L4 (antibody, V domains shown) VH: EVQLVESGGGLVKPGGSLRLSCAASGYTFTPYWMQWVRQAPGKGLEWMGSIFPGDGDTRYSQSFQGQVTISADKSISTAYMELSSLRSEDTAVYYCARGLRRGGYYFDYWGQGTLVTVSS VL: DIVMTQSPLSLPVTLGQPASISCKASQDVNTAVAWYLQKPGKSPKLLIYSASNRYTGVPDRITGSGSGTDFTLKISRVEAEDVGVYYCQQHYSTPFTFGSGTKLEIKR , thanks.
0.00299
